Values compiled from patent US20110178053A1.

Catalogue of molecules with associated pIC50
Target: Pim-1 (Homo sapiens, UniProt P11309)
Construct: His6-labelled recombinant full-length human Pim-1, Pim-2 or Pim-3 protein; His6; made in house
Sequence (P11309 whole entry): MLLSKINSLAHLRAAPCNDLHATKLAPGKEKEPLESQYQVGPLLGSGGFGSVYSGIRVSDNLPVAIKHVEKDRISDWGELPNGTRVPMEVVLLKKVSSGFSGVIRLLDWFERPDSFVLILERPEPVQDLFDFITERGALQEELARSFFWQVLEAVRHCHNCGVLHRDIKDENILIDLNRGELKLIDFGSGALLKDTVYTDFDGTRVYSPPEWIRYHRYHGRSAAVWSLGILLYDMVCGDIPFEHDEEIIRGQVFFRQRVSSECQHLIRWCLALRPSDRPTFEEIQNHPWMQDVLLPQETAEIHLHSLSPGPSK
Experiment: TR-FRET assay, Pim-1 kinase (phosphorylation of Bad Ser112)
Type: biochemical
Settings: TR-FRET; ATP 40 μM; read-out: IC50 Pim1
pIC50: −log10 of the molar value.

Molecule	Experimental System	Readout Value
CC(C)N1CCN(c2c(F)cnc3[nH]c4cnc(-c5cccnc5)cc4c23)CC1	Pim-1 (Homo sapiens, UniProt P11309)	7.00 to 9.00

Query: Can you look up the measured pIC50 of CC(C)(CO)COC(=O)c1cnc2[nH]c3cnc(-c4cccnc4)cc3c2c1 for me?
Response: 7.00 to 9.00

Query: Field request: pIC50 | item: CC(C)(N)C#Cc1c(F)cnc2[nH]c3cnc(-c4cccnc4)cc3c12
Response: 6.00 to 7.00

Query: What measured pIC50 goes with Cc1c(F)cnc2[nH]c3cnc(-c4cccnc4)cc3c12 ?
Response: 6.00 to 7.00

Query: What measured pIC50 goes with Cn1ccc2cc(-c3c(F)cnc4[nH]c5cnc(-c6cccnc6)cc5c34)ccc21 ?
Response: 7.00 to 9.00

Query: What measured pIC50 goes with Fc1cnc2[nH]c3cnc(-c4cccnc4)cc3c2c1C1CC1 ?
Response: 7.00 to 9.00

====

Target: Pim-3 (Homo sapiens, UniProt Q86V86)
Construct: His6-labelled recombinant full-length human Pim-1, Pim-2 or Pim-3 protein; His6; made in house
Assay: TR-FRET assay, Pim-3 kinase (phosphorylation of Bad Ser112)
Type: biochemical
Conditions: TR-FRET; ATP 40 μM; read-out: IC50 Pim3
IC50 by entry:

// worked examples, IC50 included
Compound	IC50
COc1cnc2[nH]c3cnc(-c4cnn(CCCCCN)c4)cc3c2c1 [Example 168]	100 to 1000 nM
COc1cnc2[nH]c3cnc(-c4cccnc4)cc3c2c1 [Example 7]	1 to 100 nM
CCCN(C)c1cnc2[nH]c3cnc(-c4cccnc4)cc3c2c1 [Example 10]	1 to 100 nM
CC(C)(C)OC(=O)c1cnc2[nH]c3cnc(-c4cccnc4)cc3c2c1 [Example 5]	100 to 1000 nM
Cc1cc(N2CCN(C(=O)OC(C)(C)C)CC2)ncc1-c1cnc2[nH]c3cnc(-c4cccnc4)cc3c2c1 [Example 156]	100 to 1000 nM

Query: IC50 for Fc1cnc2[nH]c3cnc(-c4cccnc4)cc3c2c1-c1cccc(N2CCOCC2)c1 [Example 31] ?
Response: 1000 to 5000 nM

Query: IC50; subject: c1cncc(-c2cc3c(cn2)[nH]c2ncc(-c4cccc(N5CCN(C6CC6)CC5)c4)cc23)c1 [Example 142]
Response: 1 to 100 nM

Query: May I ask what IC50 has been recorded for c1cncc(-c2cc3c(cn2)[nH]c2ncc(-c4ccc(N5CCNCC5)nc4)cc23)c1 [Example 158] ?
Response: 1 to 100 nM

Query: # get_value(readout='IC50', item= CC(C)(O)c1cnc2[nH]c3cnc(-c4cccnc4)cc3c2c1 [Example 16] )
Response: 100 to 1000 nM

Query: Requested field: IC50. Item: OCc1cccc(-c2cnc3[nH]c4cnc(-c5cccnc5)cc4c3c2)c1 [Example 118]
Response: 1 to 100 nM

Query: For the compound shown here, CC(C)(N)C#Cc1c(F)cnc2[nH]c3cnc(-c4cccnc4)cc3c12 [Example 90] , give the reported IC50.
Response: 100 to 1000 nM

Query: Which value of IC50 has been reported for CN1CCN(C2CCN(c3c(F)cnc4[nH]c5cnc(-c6cccnc6)cc5c34)CC2)CC1 [Example 82] in the records?
Response: 100 to 1000 nM

Query: Find the recorded IC50 belonging to Fc1cnc2[nH]c3cnc(-c4cccnc4)cc3c2c1N1CCC(N2CCOCC2)CC1 [Example 78] and report it.
Response: 100 to 1000 nM

Query: Which IC50 is reported for this compound? Fc1cnc2[nH]c3cnc(-c4cccnc4)cc3c2c1-c1cn[nH]c1 [Example 71]
Response: 100 to 1000 nM

Query: Requested field: IC50. Item: O=S(=O)(CCl)Nc1ccc(-c2c(F)cnc3[nH]c4cnc(-c5cccnc5)cc4c23)cc1 [Example 45]
Response: 1 to 100 nM

Query: Dear colleague, I am looking for the recorded IC50 of the following compound: Fc1cnc2[nH]c3cnc(-c4cccnc4)cc3c2c1Cl [Example 37]
Response: 1000 to 5000 nM

Query: # input compound: CCN(CC)CCOc1cccc(-c2cnc3[nH]c4cnc(-c5cccnc5)cc4c3c2)c1 [Example 153] ; wanted: its IC50
Response: 1 to 100 nM

Query: Sample Cn1ccc(-c2cnc3[nH]c4cnc(-c5cccnc5)cc4c3c2)n1 [Example 116] — what was its IC50?
Response: 1 to 100 nM

====

Molecular target: Pim-3 (Homo sapiens, UniProt Q86V86)
Construct: His6-labelled recombinant full-length human Pim-1, Pim-2 or Pim-3 protein; His6; made in house
Assay: TR-FRET assay, Pim-3 kinase (phosphorylation of Bad Ser112)
Type: biochemical
Conditions: TR-FRET; ATP 40 μM; read-out: IC50 Pim3
pIC50: −log10 of the molar value.
Reported Endpoint: pIC50

Example entries begin here.
CCCN(C)C(=O)c1cnc2[nH]c3cnc(-c4cccnc4)cc3c2c1 5.30 to 6.00
O=S(=O)(Nc1ccc(-c2c(F)cnc3[nH]c4cnc(-c5cccnc5)cc4c23)cc1)C1CC1 7.00 to 9.00
CN(C)CC(=O)N1CCN(c2ccc(-c3cnc4[nH]c5cnc(-c6cccnc6)cc5c4c3)cc2)CC1 7.00 to 9.00

Consider now this further compound.
Query: Which value of pIC50 has been reported for COc1ccnc2[nH]c3cnc(-c4cccnc4)cc3c12 in the records?
Response: 6.00 to 7.00

====

Target: Pim-1 (Homo sapiens, UniProt P11309)
Construct: His6-labelled recombinant full-length human Pim-1, Pim-2 or Pim-3 protein; His6; made in house
Assay: TR-FRET assay, Pim-1 kinase (phosphorylation of Bad Ser112)
Type: biochemical
Conditions: TR-FRET; ATP 40 μM; read-out: IC50 Pim1
Reported Endpoint: IC50

CCN(CC)CCn1nc(C)c(-c2cnc3[nH]c4cnc(-c5cccnc5)cc4c3c2)c1C 0.001 to 0.1 µM
c1cnc2[nH]c3cnc(-c4ccoc4)cc3c2c1 0.1 to 1 µM

Query: Could you tell me which IC50 is on file for c1cncc(-c2cc3c(cn2)[nH]c2ncc(-c4ccc(OCCn5ccnc5)cc4)cc23)c1 ?
Response: 0.001 to 0.1 µM

Query: What measured IC50 goes with c1cncc(-c2cc3c(cn2)[nH]c2ncc(-c4ccc(OCCN5CCOCC5)cc4)cc23)c1 ?
Response: 0.001 to 0.1 µM

====

Molecular target: Pim-2 (Homo sapiens, UniProt Q9P1W9)
Construct: His6-labelled recombinant full-length human Pim-1, Pim-2 or Pim-3 protein; His6; made in house
Sequence (Q9P1W9 whole entry): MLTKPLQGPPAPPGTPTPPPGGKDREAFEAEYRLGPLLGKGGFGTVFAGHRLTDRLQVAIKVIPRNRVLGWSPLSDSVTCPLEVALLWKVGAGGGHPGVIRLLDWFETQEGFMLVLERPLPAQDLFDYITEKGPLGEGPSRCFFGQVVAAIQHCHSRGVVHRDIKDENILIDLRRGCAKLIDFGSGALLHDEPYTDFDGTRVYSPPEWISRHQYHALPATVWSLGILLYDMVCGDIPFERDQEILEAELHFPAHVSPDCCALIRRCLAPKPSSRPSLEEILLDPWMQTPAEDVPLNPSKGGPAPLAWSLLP
Test: TR-FRET assay, Pim-2 kinase (phosphorylation of Bad Ser112)
Assay type: biochemical
Settings: TR-FRET; ATP 40 μM; read-out: IC50 Pim2
Reported Endpoint: IC50

c1cncc(-c2cc3c(cn2)[nH]c2ncc(-c4cn[nH]c4)cc23)c1 > 5000 nM
CS(=O)(=O)Nc1ccccc1-c1c(F)cnc2[nH]c3cnc(-c4cccnc4)cc3c12 > 5000 nM
CN(C)CCOc1ccc(-c2c(F)cnc3[nH]c4cnc(-c5cccnc5)cc4c23)cc1 100 to 1000 nM

We now examine a further compound.
Query: // lookup IC50 for CCN(CC)C(=O)c1cccc(-c2cnc3[nH]c4cnc(-c5cccnc5)cc4c3c2)c1
Response: 100 to 1000 nM

====

Target: Pim-2 (Homo sapiens, UniProt Q9P1W9)
Construct: His6-labelled recombinant full-length human Pim-1, Pim-2 or Pim-3 protein; His6; made in house
Assay: TR-FRET assay, Pim-2 kinase (phosphorylation of Bad Ser112)
Type: biochemical
Settings: TR-FRET; ATP 40 μM; read-out: IC50 Pim2
pIC50: −log10 of the molar value.
Some compounds, each annotated with its measured pIC50.

Worked examples, 3 compounds total:
Compound	Readout Value
COc1ccccc1-c1c(F)cnc2[nH]c3cnc(-c4cccnc4)cc3c12 [Example 63]	< 5.30
COc1cc(-c2c(F)cnc3[nH]c4cnc(-c5cccnc5)cc4c23)ccc1NS(C)(=O)=O [Example 47]	5.30 to 6.00
COc1ncc(-c2c(F)cnc3[nH]c4cnc(-c5cccnc5)cc4c23)cn1 [Example 73]	< 5.30

Query: What pIC50 value was documented for this compound, Fc1cnc2[nH]c3cnc(-c4cccnc4)cc3c2c1N1CCC(N2CCCCC2)CC1 [Example 83] ?
Response: < 5.30
